test system: Triticum aestivum; experiment: Crop compatibility post-emergence, greenhouse pot test; assay type: in vivo; settings: application rate 20 g/ha
metric_name: Triticum aestivum (Efficacy in %)

Example molecules with recorded Triticum aestivum (Efficacy in %):
molecule	measurement_units	Triticum aestivum (Efficacy in %)
CC(Sc1cc(-n2c(=O)cc(C(F)(F)F)n(C)c2=O)c(F)cc1Cl)C(=O)OC1CCNC1=O (centres unmarked)	%	10
COC(=O)CCOC(=O)C(C)(C)Sc1cc(-n2c(=O)cc(C(F)(F)F)n(C)c2=O)c(F)cc1Cl	%	20
CCC(Sc1cc(-n2c(=O)cc(C(F)(F)F)n(C)c2=O)c(F)cc1Cl)C(=O)OCC1CCC(=O)O1 (centres unmarked)	%	20
CCOC(=O)CCOC(=O)C(CC)Sc1cc(-n2c(=O)c(C)c(C(F)(F)F)n(C)c2=O)c(F)cc1Cl (centres unmarked)	%	20
CCOC(=O)CC(C)OC(=O)CSc1cc(-n2c(=O)cc(C(F)(F)F)n(C)c2=O)c(F)cc1Cl (centres unmarked)	%	20

I = CC(Sc1cc(-n2c(=O)cc(C(F)(F)F)n(C)c2=O)c(F)cc1Cl)C(=O)OCC1CCC(=O)N1 (centres unmarked)
II = CC(Sc1cc(-n2c(=O)cc(C(F)(F)F)n(C)c2=O)c(F)cc1Cl)C(=O)OC1CCOC1=O (centres unmarked)
III = CCCOC(=O)CCOC(=O)C(CC)Sc1cc(-n2c(=O)cc(C(F)(F)F)n(C)c2=O)c(F)cc1Cl (centres unmarked)
Rank ascending by Triticum aestivum (Efficacy in %). Answer by writing out the labels in the requested order.
III, I, II

----------
test system: Oryza sativa; assay: Crop compatibility post-emergence, greenhouse pot test; assay type: in vivo; settings: application rate 20 g/ha
metric_name: Oryza sativa (Efficacy in %)

Example molecules with recorded Oryza sativa (Efficacy in %):
molecule	obs_value
CCOC(=O)COC(=O)C(Sc1cc(-n2c(=O)cc(C(F)(F)F)n(C)c2=O)c(F)cc1Cl)C(C)C (stereo not shown) [I.6-43]	0
CC(Sc1cc(-n2c(=O)cc(C(F)(F)F)n(C)c2=O)c(F)cc1Cl)C(=O)OC1CCNC1=O (stereo not shown) [I.1-251]	20
CCNC(=O)COC(=O)C(C)Sc1cc(-n2c(=O)cc(C(F)(F)F)n(C)c2=O)c(F)cc1Cl (stereo not shown) [I.1-183]	20
CCOC(=O)CCOC(=O)C(Sc1cc(-n2c(=O)cc(C(F)(F)F)n(C)c2=O)c(F)cc1Cl)C(C)C (stereo not shown) [I.6-3]	20

I = CCC(Sc1cc(-n2c(=O)cc(C(F)(F)F)n(C)c2=O)c(F)cc1Cl)C(=O)OCCC(=O)OCc1ccccc1 (stereo not shown) [I.2-6]
II = CCCCC(Sc1cc(-n2c(=O)cc(C(F)(F)F)n(C)c2=O)c(F)cc1Cl)C(=O)OCCC(=O)OCC (stereo not shown) [I.47-3]
III = CCC(Sc1cc(-n2c(=O)cc(C(F)(F)F)n(C)c2=O)c(F)cc1Cl)C(=O)OCC(C)(C)C(=O)OC (stereo not shown) [I.2-32]
Rank ascending by Oryza sativa (Efficacy in %). Answer by writing out the labels in the requested order.
III, I, II
(III: 0%, I: 10%, II: 20%)

----------
test system: Oryza sativa; assay: Crop compatibility post-emergence, greenhouse pot test; assay type: in vivo; conditions: application rate 5 g/ha
metric_name: Oryza sativa (Efficacy in %)

compound	Oryza sativa (Efficacy in %)
CC(Sc1cc(-n2c(=O)cc(C(F)(F)F)n(C)c2=O)c(F)cc1Cl)C(=O)OC1COC(=O)C1 (stereo not shown)	20
CCC(Sc1cc(-n2c(=O)cc(C(F)(F)F)n(C)c2=O)c(F)cc1Cl)C(=O)OCCC(=O)OC (stereo not shown)	20

a = CON(C)C(=O)COC(=O)C(C)Sc1cc(-n2c(=O)cc(C(F)(F)F)n(C)c2=O)c(F)cc1Cl (stereo not shown)
b = CCNC(=O)CCOC(=O)C(C)Sc1cc(-n2c(=O)cc(C(F)(F)F)n(C)c2=O)c(F)cc1Cl (stereo not shown)
Could you determine which record has the numerically smaller Oryza sativa (Efficacy in %)? Candidates: a and b Response format: the label of the selected entry.
b

Measured values drawn from patent US11274083B2 for this set.
